target-under-test: T1, canine NGF tagged at the C-terminus with the Flag tag (canine, UniProt A0A8I3PYI3 122-241)
T1 construct: mature; also called feline NGF (processed form identical)
T1 sequence (A0A8I3PYI3 entry or part of it): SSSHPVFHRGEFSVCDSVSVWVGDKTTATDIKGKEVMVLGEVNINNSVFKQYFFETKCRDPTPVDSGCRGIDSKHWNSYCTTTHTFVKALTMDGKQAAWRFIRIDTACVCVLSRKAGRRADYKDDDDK
assay-notes: SPR competition; Ab pre-incubated with 50 nM NGF at Ab to NGF ratio 1 to 1, injected over captured feline p75 (competitor)
readout-type: % Block (%)

binder="SC-184_110-Arg (antibody, V domains shown) VH: DVQLVESGGDLVKPGGSLRLTCVASGLSLTSASMSWVRQAPGKGLQWVSTIYSNRGTYYTDSVKGRFTISKDNAENTLYLQMNNLKTEDTATYYCASIYYYEAEYLHWYFDFWGQGALVTVSS VL: EIQMTQSPTSLSASVGDRVTITCRASEGISKNLSWYQQTPGKAPKLLIYATDNLHSGVPSRFSGSGSGTDFTLTISSLQPEDFATYYCQQGWKWPLTFGGGTKLEIT" readout_type="% Block" numeric_value=100
binder="felinized clone 101 (antibody, V domains shown) VH: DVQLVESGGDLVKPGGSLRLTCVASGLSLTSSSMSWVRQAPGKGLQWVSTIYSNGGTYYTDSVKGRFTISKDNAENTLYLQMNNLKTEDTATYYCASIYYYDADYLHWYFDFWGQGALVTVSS VL: EIQMTQSPTSLSASVGDRVTITCRASEGISNNLSWYQQTPGKAPKLLIYATSNLHSGVPSRFSGSGSGTDFTLTISSLQPEDFATYYCQQGYKWPLTFGGGTKLEIT" readout_type="% Block" numeric_value=42
binder="AHF17602 (antibody, V domains shown) VH: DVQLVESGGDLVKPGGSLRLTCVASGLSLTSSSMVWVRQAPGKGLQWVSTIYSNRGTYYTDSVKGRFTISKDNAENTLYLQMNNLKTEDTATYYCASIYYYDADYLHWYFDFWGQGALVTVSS VL: EIQMTQSPTSLSASVGDRVTITCRASEGIANNLSWYQQTPGKAPKLLIYATSNLHSGVPSRFSGSGSGTDFTLTISSLQPEDFATYYCQQGYKWPLTFGGGTKLEIT" readout_type="% Block" numeric_value=100
binder="SC-184_76-Arg (antibody, V domains shown) VH: DVQLVESGGDLVKPGGSLRLTCVASGLSLTSDSMSWVRQAPGKGLQWVSTLWSNRGTYYTDSVKGRFTISKDNAENTLYLQMNNLKTEDTATYYCASIYYYEADYLHWYFDFWGQGALVTVSS VL: EIQMTQSPTSLSASVGDRVTITCRASEGIANNLSWYQQTPGKAPKLLIYATSNLHSGVPSRFSGSGSGTDFTLTISSLQPEDFATYYCQQGFKWPLTFGGGTKLEIT" readout_type="% Block" numeric_value=100

Data provenance: patent US20240199727A1
